Examples of compounds with documented normalized growth follow.
Test: chemical genetic growth profiling, strain panel (AID 1159580);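 further: tested at 20 µM; growth read once vehicle control cultures reached saturation at 30 °C; 1 = growth at the plate median or of vehicle wells; lower values mean less growth of the strain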
Conditions: S. cerevisiae deletion strains, growth OD, locus YHR129C, strain ARP1, active compounds read low
Among all 5,500 compounds or so, about 2,000 (36%) were called active. Not shown: some 18% with an inconclusive outcome. The list shows a part of the results.
Measured parameter: normalized growth

>  <Compound>
CCN(CCO)CCCC(C)Nc1ccnc2cc(Cl)ccc12 (centres undefined)

>  <Measurement>
1.01

$$$$
>  <Compound>
CC(=O)OCC(=O)[C@H]1CCC2C3CCC4=CC(=O)CC[C@]4(C)C3CC[C@@]21C (some centres undefined)

>  <Measurement>
0.944

$$$$
>  <Compound>
CCCCNc1cc(C(=O)O)cc(S(N)(=O)=O)c1Oc1ccccc1

>  <Measurement>
0.99

$$$$
>  <Compound>
C=C(C)[C@@H]1[C@H]2OC(=O)[C@@H]1[C@]1(O)C[C@H]3O[C@]34C(=O)O[C@H]2[C@]14C

>  <Measurement>
1

$$$$
>  <Compound>
COP(=O)(OC)OC=C(Cl)Cl

>  <Measurement>
0.976

$$$$
>  <Compound>
COC1=C(OC)C(=O)C(C/C=C(\C)CC/C=C(\C)CC/C=C(\C)CC/C=C(/C)CC/C=C(\C)CC/C=C(\C)CC/C=C(\C)CC/C=C(\C)CC/C=C(\C)CCC=C(C)C)=C(C)C1=O

>  <Measurement>
1.01

$$$$
>  <Compound>
CC(=O)OCC(=O)[C@@]1(O)CCC2C3CCC4=CC(=O)CC[C@]4(C)C3C(=O)C[C@@]21C (some centres undefined)

>  <Measurement>
1

$$$$
>  <Compound>
C[N+](C)(C)CCCCCC[N+](C)(C)C

>  <Measurement>
0.988

$$$$
>  <Compound>
COc1cc(NS(=O)(=O)c2ccc(N)cc2)nc(OC)n1

>  <Measurement>
0.985

$$$$
